SUBJECT_OF_TEST: full-length beta-Catenin (Uniprot ID P35222) (Homo sapiens (Human)) (UniProt P35222)
PROTOCOL: fluorescence polarization competition; full-length beta-catenin, competitor 5FAM-TCF4(10-53) probe
Starred links: 1 amine or outer side, 2 acyl side, 3 side chain; linkers in the order of their positions; H or OH if unused. Positions of bridges follow the written chain, without caps; N, C: chain ends. Non-standard residues stand in square brackets, D forms with d. Primed or numbered codes have the meaning given here. No end group written: not given here. PyrS2″ = (S)-3-amino-1-((pent-4-en-1-yloxy)carbonyl)pyrrolidine-3-carboxylic acid (stapling residue), C=CCCCOC(=O)N1CC[C@@](N[*:1])(C(=O)[*:2])C1; B5(4) = 2,2-bis(4-pentenyl)glycine = 2-amino-2-(pent-4-en-1-yl)hept-6-enoic acid (stitching residue), C=CCCCC(CCCC=C)(N[*:1])C(=O)[*:2]; B5(5) = 2,2-bis(4-pentenyl)glycine, 2-amino-2-(pent-4-en-1-yl)hept-6-enoic acid (stitching residue), C=CCCCC(CCCC=C)(N[*:1])C(=O)[*:2]; TfeGA = (S)-2-amino-3-((carboxymethyl)(2,2,2-trifluoroethyl)amino)propanoic acid, O=C([C@H](CN(CC(=O)[*:3])CC(F)(F)F)N[*:1])[*:2]; PyrS2 = (S)-3-amino-1-((pent-4-en-1-yloxy)carbonyl)pyrrolidine-3-carboxylic acid, C=CCCCOC(=O)N1CC[C@@](N[*:1])(C(=O)[*:2])C1; PyrS3 = (S)-3-amino-1-((hex-5-en-1-yloxy)carbonyl)pyrrolidine-3-carboxylic acid, C=CCCCCOC(=O)N1CC[C@@](N[*:1])(C(=O)[*:2])C1; B5(7) = 2-amino-2-(pent-4-en-1-yl)hept-6-enoic acid, two olefinic side chains, C=CCCCC(CCCC=C)(N[*:1])C(=O)[*:2]; B5(13) = 2-amino-2-(pent-4-en-1-yl)hept-6-enoic acid (two alkene chains), C=CCCCC(CCCC=C)(N[*:1])C(=O)[*:2]; B5(3) = 2,2-bis(4-pentenyl)glycine (stitching residue), C=CCCCC(CCCC=C)(N[*:1])C(=O)[*:2]; Phe(3-COOH) = N[C@@H](Cc1cccc(C(=O)O)c1)C(=O)O; Phe(2-CF3) = N[C@@H](Cc1ccccc1C(F)(F)F)C(=O)O; Phe(2-Cl) = N[C@@H](Cc1ccccc1Cl)C(=O)O; Phe(2-Me) = Cc1ccccc1C[C@H](N)C(=O)O; Bta = N[C@@H](Cc1csc2ccccc12)C(=O)O; αAllylPro = C=CC[C@@]1(C(=O)O)CCCN1; tBuAla = CC(C)(C)C[C@H](N)C(=O)O; 3Thi = N[C@@H](Cc1ccsc1)C(=O)O; S8 = C=CCCCCCC[C@](C)(N)C(=O)O; hLeu = CC(C)CC[C@H](N)C(=O)O
MEASURED_PROPERTY: EC50 (nM)

Quickly give me recorded EC50 for Ac-[αAllylPro]D[hLeu][B5(5)]DDAAFN[S8]F[Bta]H-NH2 (staple 1-4, 4-11) [I-584]
33

Quickly give me recorded EC50 for Ac-[αAllylPro]D[tBuAla][B5(3)]DEAAFL[PyrS2″]F[Bta]Q-NH2 (staple 1-4, 4-11; not fully specified; printed as Ac-PL3-Asp-Npg-B5-Asp-Glu-Ala-Ala-Phe-Leu-PyrS2-Phe-BztA-Gln-NH2) [I-1073]
409

Quickly give me recorded EC50 for Ac-[αAllylPro]D[tBuAla][B5(13)]DDAAFN[PyrS3][3Thi][Bta]H-NH2 (staple 1-4, 4-11) [I-776]
5

Quickly give me recorded EC50 for Ac-[αAllylPro]D[tBuAla][B5(7)]D[TfeGA]AAFN[PyrS2][3Thi][Bta]H-NH2 (staple 1-4, 4-11; also: later-eluting staple isomer) [I-770]
5

I: [αAllylPro]D[tBuAla][B5(4)]D[Phe(3-COOH)]AAFF[PyrS2″][Phe(2-CF3)][Bta]Q-NH2 (staple 1-4; staple 4-11 (inferred)) [I-1341]
II: Ac-[αAllylPro]D[tBuAla][B5(3)]DEAAFL[PyrS2][Phe(2-Cl)][Bta]Q-NH2 (staple 1-4, 4-11) [I-1063]
Choose between I and II : whose measured EC50 value is numerically larger? Choose, then provide that item's label.
II

I: [αAllylPro]D[tBuAla][B5(5)]DDAAFF[PyrS2″][Phe(2-Me)][Bta]Q-NH2 (staple 1-4; staple 4-11 (inferred)) [I-1326]
II: Ac-[αAllylPro]D[tBuAla][B5(3)]DDAAFL[PyrS2″][Phe(2-Cl)][Bta]T-NH2 (staple 1-4, 4-11; not fully specified; printed as Ac-PL3-Asp-Npg-B5-Asp-Asp-Ala-Ala-Phe-Leu-PyrS2-2C1F-BztA-Thr-NH2) [I-1068]
Compare EC50: is it lower for I or for II ? Choose, then provide that item's label.
I
(I: 12 nM, II: 950 nM)
